Molecular target: EGFR L858R/C797S (Homo sapiens, UniProt P00533, C797S/L858R)
Construct: expressed in transfected cells; host or cells: Ba/F3
Assay: Ba/F3 drug screening, Cell Titer Glo, IC50 Mut/WT
Format: cell-based
Settings: PACC; L858R/C797S; Ba/F3; 72 hours
Listed molecules paired with reported ratio of IC50 for cells with mutant EGFR to IC50 for cells with wildtype EGFR (Mut/WT)
Reply: number alone, nothing else.

For orientation, consider the following solved cases.
COc1cc2ncnc(Nc3ccc(F)c(Cl)c3)c2cc1NC(=O)/C=C/CN1CCCCC1 [Dacomitinib] :: 0.04539
COc1cc2ncnc(Nc3cccc(Cl)c3F)c2cc1OC(=O)N1CCN(C)C[C@H]1C [AZD3759] :: 0.001895

Ask: State the recorded ratio of IC50 for cells with mutant EGFR to IC50 for cells with wildtype EGFR (Mut/WT) for this entry: CNC(=O)CN1CCC(Oc2cc3c(Nc4cccc(Cl)c4F)ncnc3cc2OC)CC1 [Sapatinib]
Result: 0.001101

Ask: State the recorded ratio of IC50 for cells with mutant EGFR to IC50 for cells with wildtype EGFR (Mut/WT) for this entry: CN(C)C/C=C/C(=O)Nc1cc2c(Nc3ccc(Cl)c(Br)c3)ncnc2cn1 [Tarlox-TKI]
Result: 0.7434
